# Tested on: MS2 coat protein
# Test description: apparent KD of MS2 coat protein; designed switch direction (-1 OFF switch, 1 ON switch): -1; higher = weaker reporter binding
# Condition label: input ligand: FMN 200 uM
Mark 1 for reported apparent KD of MS2 coat protein of 50 nM or greater; mark -1 for anything smaller.

Example entries and their recorded answers appear below.
| Query sequence | Target entity | Assigned category |
| --- | --- | --- |
| AGUCGGUCAGGAUAUGCAGACGUAGACAUGAGGAUCACCCAUGUAACGUGGGCCUGGUUUGUAGAAGGGACGAGCA [EX5 #84] (Eterna round: R97, puzzle: Exclusion 5) | MS2 coat protein | -1 |
| AUUAAUUGUCAGAUGGGUGACAUGAGGAUCACCCAUGUCACAAGCUUUUUGCUCGUCUUAUAAUUAACCCAUCUGAC [Stov1/11-A2] (Eterna round: R97, puzzle: Sensor, turn-off variant 1) | MS2 coat protein | -1 |
| GGAUCGAAUGUCAGGAUAUGCUGGUCCUUGGAUCAGCAGAAGGGACAUGAGGAUCACCCAUGUCCUCUCGGUCC [Eli bmx4 4.52] (Eterna round: R97, puzzle: Brourd's mod of Exclusion 4) | MS2 coat protein | 1 |
| UAUUAGCAAGCGAGAUCCCACAUGAGGAUCACCCAUGUGCUCGUCUUAUAAAGUACUGUGACGAUAGUCACGGUACA [Mat - Sensor, turn-off var - Eli Mod - D8] (Eterna round: R97, puzzle: Sensor, turn-off variant 1) | MS2 coat protein | -1 |

Now consider the entry below.
input: Does AGCUUUUUGCUCGUCUUAUACAUGAGGAUCACCCAUGUAUUGGACCACAUCGAUAGAUGUGGACCAAGAAGCGUGGU [Omdei Mir OFFv1 C4] (Eterna round: R97, puzzle: Sensor, turn-off variant 1) have a reported apparent KD of MS2 coat protein of at least 50 nM?
output: -1
